Data credit: patent US20050032873A1

- EXPERIMENTAL_SYSTEM: cloned human 5-HT1A receptors (Homo sapiens, UniProt P08908)
- Construct: expressed in transfected cells
- Sequence (P08908 1-422): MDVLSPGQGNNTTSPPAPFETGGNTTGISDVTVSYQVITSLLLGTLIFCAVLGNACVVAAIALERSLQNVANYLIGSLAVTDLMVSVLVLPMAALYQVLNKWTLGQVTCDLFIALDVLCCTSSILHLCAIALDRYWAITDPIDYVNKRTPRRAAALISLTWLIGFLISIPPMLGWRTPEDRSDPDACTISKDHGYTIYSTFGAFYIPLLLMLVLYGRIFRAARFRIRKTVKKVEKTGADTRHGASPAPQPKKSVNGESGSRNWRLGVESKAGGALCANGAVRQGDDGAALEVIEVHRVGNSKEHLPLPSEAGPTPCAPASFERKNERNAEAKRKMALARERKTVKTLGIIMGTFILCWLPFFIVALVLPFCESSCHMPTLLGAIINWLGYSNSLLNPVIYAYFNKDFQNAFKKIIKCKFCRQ
- ASSAY_PROTOCOL: 35S-GTPγS binding assay, 5-HT1A function
- Assay type: biochemical
- CONDITION_NOTES: maximum inhibitory effect, in brackets after IC50; read-out: 5-HT1A Function GTPγS (Imax)
Some molecules, each annotated with its measured Emax.
MEASURED_PROPERTY: Emax (%)

MOLECULE	MEASURED_PROPERTY	UNITS_OF_MEASURE	MEASURED
COc1cccc2c(CCCCN(CC3CC3)C3COc4c(F)ccc(C(N)=O)c4C3)coc12 (stereo not drawn)	Emax	%	100
NC(=O)c1ccc(F)c2c1CC(N(CCCCn1ccc3ccc(F)cc31)C1CCC1)CO2 (stereo not drawn)	Emax	%	100
C[C@H](CCN(C1CCC1)[C@@H]1COc2c(F)ccc(C(N)=O)c2C1)c1c[nH]c2ccc(F)cc12 [Compound 152b]	Emax	%	50
COc1ccc2[nH]cc(CCCN(CC3CC3)C3COc4c(F)ccc(C(N)=O)c4C3)c2c1 (stereo not drawn)	Emax	%	100
NC(=O)c1cccc2c1CC(N(CCCc1c[nH]c3ccc(F)cc13)C1CCC1)CO2 (single isomer, unassigned; (-)) [Compound 134a]	Emax	%	60
CC(Cc1c[nH]c2ccc(F)cc12)CN(CC1CC1)[C@H]1COc2c(F)ccc(C(N)=O)c2C1 (single isomer, unassigned) [Compound 155a]	Emax	%	100
O=C(NCC1CC1)c1ccc(F)c2c1CC(N(CCCc1c[nH]c3ccc(F)cc13)C1CCC1)CO2 (stereo not drawn)	Emax	%	50
N#Cc1ccc2[nH]cc(CCCN(CC3CC3)[C@@H]3COc4c(F)ccc(C(N)=O)c4C3)c2c1 [Compound 98a]	Emax	%	51
NC(=O)c1ccc(F)c2c1CC(N(CCC(=O)c1c[nH]c3ccc(F)cc13)C1CCC1)CO2 (stereo not drawn)	Emax	%	100
CCN(CCc1c[nH]c2ccc(F)cc12)C1COc2c(F)ccc(C(=O)NC)c2C1 (stereo not drawn)	Emax	%	72
NC(=O)c1ccc(F)c2c1CC(NCCc1c[nH]c3ccc(F)cc13)CO2 (stereo not drawn)	Emax	%	40
COc1cccc2c1C[C@@H](N(CCCc1c[nH]c3ccc(F)cc13)C1CCC1)CO2	Emax	%	80
O=C(NC1CCCCC1)c1ccc(F)c2c1CC(N(CCCc1c[nH]c3ccc(F)cc13)C1CCC1)CO2 (stereo not drawn)	Emax	%	76
CCCCNC(=O)c1ccc(F)c2c1CC(N(CCCc1c[nH]c3ccc(F)cc13)C1CCC1)CO2 (stereo not drawn)	Emax	%	50
N#Cc1ccc2[nH]cc(CCCN(C3CCC3)[C@H]3COc4c(F)ccc(C(N)=O)c4C3)c2c1 [Compound 97b]	Emax	%	100
